Provenance of the data: patent US10336725B2

# studyTarget: Sodium Channel ENaC (Homo sapiens, UniProt P37088+P51168+P51170)
# Construct: Human primary bronchial epithelial cells differentiated at air-liquid interface (ALI); host or cells: Human primary bronchial epithelial cells differentiated at air-liquid interface
# Sequence (P37088 whole entry): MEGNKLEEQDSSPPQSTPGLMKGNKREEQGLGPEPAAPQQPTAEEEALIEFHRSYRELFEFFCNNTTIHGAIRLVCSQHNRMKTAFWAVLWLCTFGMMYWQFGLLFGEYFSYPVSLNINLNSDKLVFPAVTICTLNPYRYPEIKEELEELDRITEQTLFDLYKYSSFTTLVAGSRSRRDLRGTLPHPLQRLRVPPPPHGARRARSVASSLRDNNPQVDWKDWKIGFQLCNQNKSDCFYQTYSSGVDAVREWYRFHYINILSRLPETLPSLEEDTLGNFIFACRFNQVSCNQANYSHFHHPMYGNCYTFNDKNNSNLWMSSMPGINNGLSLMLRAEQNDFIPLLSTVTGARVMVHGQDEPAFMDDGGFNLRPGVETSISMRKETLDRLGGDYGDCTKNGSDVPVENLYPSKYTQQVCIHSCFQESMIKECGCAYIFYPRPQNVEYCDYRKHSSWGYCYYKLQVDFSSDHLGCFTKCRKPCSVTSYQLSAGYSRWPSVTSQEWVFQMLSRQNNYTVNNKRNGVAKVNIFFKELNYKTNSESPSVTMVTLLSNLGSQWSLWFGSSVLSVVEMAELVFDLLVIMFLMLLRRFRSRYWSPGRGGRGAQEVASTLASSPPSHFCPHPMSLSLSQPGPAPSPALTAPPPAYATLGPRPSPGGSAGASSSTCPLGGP
# Sequence (P51168 whole entry): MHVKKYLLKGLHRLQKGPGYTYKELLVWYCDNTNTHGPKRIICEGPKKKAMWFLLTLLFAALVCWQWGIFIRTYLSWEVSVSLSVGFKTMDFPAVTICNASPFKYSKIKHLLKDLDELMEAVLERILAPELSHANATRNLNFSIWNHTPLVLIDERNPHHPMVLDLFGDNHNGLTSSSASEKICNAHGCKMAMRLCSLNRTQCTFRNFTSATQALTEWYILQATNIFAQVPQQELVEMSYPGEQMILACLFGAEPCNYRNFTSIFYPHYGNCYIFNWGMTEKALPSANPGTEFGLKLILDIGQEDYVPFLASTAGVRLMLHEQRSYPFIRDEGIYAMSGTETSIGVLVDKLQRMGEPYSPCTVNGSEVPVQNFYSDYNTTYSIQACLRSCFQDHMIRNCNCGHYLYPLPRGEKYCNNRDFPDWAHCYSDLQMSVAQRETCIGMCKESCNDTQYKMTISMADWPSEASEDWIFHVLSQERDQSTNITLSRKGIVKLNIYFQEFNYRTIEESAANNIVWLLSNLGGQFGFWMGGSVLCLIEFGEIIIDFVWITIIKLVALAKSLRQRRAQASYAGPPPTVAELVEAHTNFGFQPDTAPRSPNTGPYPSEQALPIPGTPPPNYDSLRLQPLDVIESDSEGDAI
# Sequence (P51170 whole entry): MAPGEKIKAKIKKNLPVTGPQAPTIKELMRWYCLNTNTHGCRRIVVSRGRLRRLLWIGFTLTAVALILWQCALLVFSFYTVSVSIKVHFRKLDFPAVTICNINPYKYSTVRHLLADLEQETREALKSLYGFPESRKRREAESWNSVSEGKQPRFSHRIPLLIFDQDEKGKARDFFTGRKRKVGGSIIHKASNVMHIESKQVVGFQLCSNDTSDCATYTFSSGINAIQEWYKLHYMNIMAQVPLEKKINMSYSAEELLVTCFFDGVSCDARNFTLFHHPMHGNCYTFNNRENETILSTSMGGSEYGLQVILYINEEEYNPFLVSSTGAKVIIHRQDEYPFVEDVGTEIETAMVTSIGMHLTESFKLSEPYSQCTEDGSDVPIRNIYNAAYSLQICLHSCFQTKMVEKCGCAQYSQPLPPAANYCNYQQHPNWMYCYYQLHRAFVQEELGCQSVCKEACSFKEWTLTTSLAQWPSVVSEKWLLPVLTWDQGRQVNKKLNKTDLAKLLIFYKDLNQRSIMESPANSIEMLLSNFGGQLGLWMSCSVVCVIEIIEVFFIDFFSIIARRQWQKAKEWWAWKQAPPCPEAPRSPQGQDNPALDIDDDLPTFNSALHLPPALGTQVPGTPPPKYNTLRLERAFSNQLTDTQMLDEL
# methodNotes: Sodium Channel ENaC Ussing Chamber Test (short circuit current)
# Type: cell-based
# experimentalSetup: human primary bronchial epithelial cells at air-liquid interface; inhibition of short circuit current; compounds added to the apical side
pIC50: −log10 of the molar value. Structures can show the parent of a compound that is named as a salt.
parameterMeasured: pIC50

molecule | pIC50
CCCCCCN(CCNC(=O)c1ccc(CCNC[C@H](CNC(=O)c2nc(Cl)c(N)nc2N)Cc2ccccc2C)cc1)C[C@H](O)[C@@H](O)[C@H](O)CO [Example 13, Dihydrochloride] | 10.10
CCCCCCN(CCCC(=O)N1CCC(CNC[C@H](CNC(=O)c2nc(Cl)c(N)nc2N)Cc2ccccc2C)CC1)C[C@H](O)[C@@H](O)[C@H](O)[C@H](O)CO [Example 6] | 9.50
CCCCCCN(CCNC(=O)Oc1ccc(CNC[C@H](CNC(=O)c2nc(Cl)c(N)nc2N)Cc2ccccc2C)cc1)C[C@H](O)[C@@H](O)[C@H](O)[C@H](O)CO [Example 11] | 8.80
CCCCCCN(CCNC(=O)N1CCC(CNC[C@H](CNC(=O)c2nc(Cl)c(N)nc2N)Cc2ccccc2C)CC1)C[C@H](O)[C@@H](O)[C@H](O)[C@H](O)CO [Example 3] | 10.10
Cc1ccccc1C[C@H](CNCC1CCN(C(=O)CCNC[C@H](O)[C@@H](O)[C@H](O)[C@H](O)CO)CC1)CNC(=O)c1nc(Cl)c(N)nc1N [Example 7] | 8.90

a. CCCCCCN(CCC(=O)N1CCC(CNC[C@H](CNC(=O)c2nc(Cl)c(N)nc2N)Cc2ccccc2C)CC1)C[C@H](O)[C@@H](O)[C@H](O)[C@H](O)CO [Example 4]
b. CCCCCCN(CCNC(=O)c1ccc(CNC[C@H](CNC(=O)c2nc(Cl)c(N)nc2N)Cc2ccccc2C)cc1)C[C@H](O)[C@@H](O)[C@H](O)[C@H](O)CO [Example 10]
(Q) From the recorded data, which exceeds the other in pIC50: a or b ? Field: selected label. Fill in the label of the entry you choose.
(A) a

1. CCCCCCN(CCNC(=O)c1ccc(CNC[C@H](CNC(=O)c2nc(Cl)c(N)nc2N)Cc2ccccc2C)cc1)C[C@@H](O)[C@@H](O)[C@H](O)[C@H](O)CO [Example 9, Dihydrochloride]
2. CCCCCCN(CCNC(=O)c1ccc(CCNC[C@H](CNC(=O)c2nc(Cl)c(N)nc2N)Cc2ccccc2C)cc1)C[C@H](O)[C@@H](O)[C@H](O)[C@H](O)CO [Example 12, Dihydrochloride]
3. CCCCCCN(CCNC(=O)c1ccc(CNC[C@@H](CNC(=O)c2nc(Cl)c(N)nc2N)Cc2ccccc2C)cc1)C[C@H](O)[C@@H](O)[C@H](O)CO [Example 14, Acetic Acid]
4. CCCCCCN(CCC(=O)N1CCC(CNC[C@H](CNC(=O)c2nc(Cl)c(N)nc2N)Cc2ccccc2C)CC1)C[C@H](O)[C@@H](O)[C@H](O)CO [Example 5]
(Q) Please list these in order of increasing pIC50. Thank you! Answer by listing the labels in the order asked for.
(A) 3, 1, 4, 2
(3: 7.50, 1: 8.60, 4: 9.00, 2: 9.60)

P. CCCCCCN(CCC(=O)N1CCC(CNC[C@H](CNC(=O)c2nc(Cl)c(N)nc2N)Cc2ccccc2C)CC1)C[C@@H](O)[C@@H](O)[C@H](O)[C@H](O)CO [Example 8]
Q. CCCCCCN(CCNC(=O)c1ccc(CNC[C@H](CNC(=O)c2nc(Cl)c(N)nc2N)Cc2ccccc2C)cc1)C[C@H](O)[C@@H](O)[C@H](O)CO [Example 2]
(Q) For the pair P and Q , which entry has the numerically smaller recorded pIC50? Lab note: record the label of whichever item you select.
(A) Q
(Q: 8.60, P: 9.50)
